subjectOfTest: Replicase polyprotein 1ab (Severe acute respiratory syndrome coronavirus 2, UniProt P0DTD1)
testProtocol: Inhibition of SARS-CoV-2 PLpro using Arg-Leu-Arg-Gly-Gly-AMC as substrate preincubated for 5 mins followed by substrate addition measured after 6 mins by fluorescence based assay
measurementParameters: read-out: IC50
pIC50: −log10 of the molar value.

[
  {
    "compoundString": "Nc1ccccc1-c1noc(-c2ccncc2)n1",
    "pIC50": 5.14
  }
]

###

testProtocol: Cytotoxicity against human WI-38 cells assessed as reduction in cell viability incubated for 72 hrs by MTT assay
Type: toxicity, cell-based
measurementParameters: WI-38 cells
recordedEndpoint: CC50 at 72 h (µM)

[
  {
    "compoundString": "Nc1ccccc1-c1noc(-c2ccccc2)n1",
    "uom": "µM",
    "quantitativeReadout": 36.5
  }
]

Origin of values: ChEMBL document CHEMBL5346937
